Test system: SEM cells
measurement-protocol: cell viability relative to DMSO control; higher = less cytotoxic
experimental-setup: RPMI 5 mM glucose + 10% dialyzed FBS; 48 h; 0.569 µM

compound: COc1cc2ncnc(Nc3ccc(F)c(Cl)c3)c2cc1OCCCN1CCOCC1
unit-of-measure: %
cell viability: 123
//
compound: CN(C)c1ccc(C(=O)NCCCCCCC(=O)NO)cc1
unit-of-measure: %
cell viability: 83.5
//
compound: CC1(C)O[C@H]2CC(=O)OC[C@]23[C@H]2CC[C@@]4(C)[C@H](c5ccoc5)OC(=O)[C@H]5O[C@]54[C@]2(C)C(=O)C[C@@H]13
unit-of-measure: %
cell viability: 109
//
compound: Cc1cnc(Nc2ccc(OCCN3CCCC3)cc2)nc1Nc1cccc([S+](=O)([O-])NC(C)(C)C)c1
unit-of-measure: %
cell viability: 106
